System: NCI-H2122
Experiment: Growth inhibition of human NCI-H2122 cells incubated for 3 days
Format: functional, cell-based
Conditions: NCI-H2122, 72 h
Recorded IC50 for the following compounds

Some solved entries appear below for comparison.
Cc1ccc(-c2csc(Cn3nc(CC4OCC(=O)O4)c4ccccc4c3=O)n2)cc1 (stereo not drawn)
> 100 µM
Cc1ccc(-c2csc(Cn3nc(CC4OCCCO4)c4ccccc4c3=O)n2)cc1
> 100 µM

Shift focus to the following entry.
IC50 lookup needed for "Cc1ccc(-c2csc(Cn3nc(CC(=O)O)c4ccccc4c3=O)n2)cc1" , thanks.
> 100 µM
